- assay.method.text: NCI Yeast Anticancer Drug Screen. Data for the rad50 strain (AID 155)
- settings: S. cerevisiae rad50 strain growth inhibition; at 50.0 µM (retest, dose inferred, filed as 5.0)
About 79,000 compounds went through this panel and 15% of them were active in at least one assay; those are over-represented in the sample as a whole. Activity calls are given as the source filed them. No stated cut-off is given here; in the data, active means growth inhibition above about 70%; inactive means the rest.
Pick one: T for active, F for inactive

{"columns": ["molecule", "category"],
 "data": [
  ["CCCCCc1cc(C(=O)OC/C(C)=N/O)c2ccccc2n1", "T"]
]}

// query In this assay, the call recorded for O=C(CCN1CCCCC1)N1CCc2c([nH]c3ccccc23)C1c1cccnc1 (stereo unspecified) was what?
// result F

// query # fetch the recorded call for `O=C(O)c1ccccc1/C=C1\Cc2ccc3c(c2C1=O)CCCC3` here
// result F

// query Which outcome was entered for the molecule `ClC1=C(Cl)C(Cl)(C(Cl)(Cl)Cl)C(Cl)=C1Cl` in this test?
// result T

// query Identify the outcome logged in this assay for the molecule shown: `C[C@]12CC[C@@H]3c4cc(OCC(F)(F)F)c(O)cc4CC[C@H]3[C@@H]1CC[C@@H]2O`
// result T

// query Please state the recorded outcome for this molecule: `Oc1ccc(Cc2cccc(Br)c2)c(O)c1`
// result T

// query Which outcome was assigned to `COC1=C(OC)C(=O)C(SCc2ccco2)=CC1=O` in this test?
// result T

// query GET /call?item= `O=C1NC(=S)S/C1=C/c1ccc(/C=C2/SC(=S)NC2=O)cc1` returns the recorded outcome of this test.
// result F

// query Look up the recorded call for Cc1c(N)nc(C(CC(N)=O)NCC(N)C(N)=O)nc1C(=O)NC(C(=O)NC(C)C(O)C(C)C(=O)NC(C(=O)NCCc1nc(-c2nc(C(=O)NCCCNC(C)c3ccccc3)cs2)cs1)C(C)O)C(OC1OC(CO)C(O)C(O)C1OC1OC(CO)C(O)C(OC(N)=O)C1O)c1cnc[nH]1 (stereo unspecified) in this test.
// result T

// query Please indicate how the test categorized `O=C1C=C(c2cccc(-c3ccccc3)c2)CCC1` .
// result T

// query Which result was noted for this molecule in the test: `O=[N+]([O-])c1ccc(NNS(=O)(=O)c2ccccc2)c([N+](=O)[O-])c1`
// result F

// query Given O=C1C2C3C=CC(C3)C2C(=NS(=O)(=O)c2ccccc2)C2C3C=CC(C3)C12 (stereo unspecified) , state the outcome it received in this test.
// result F

// query Outcome logged for `CC(C)CCC(C)(C)c1cc(O)ccc1O` in this assay:
// result T

// query Outcome? `CCCc1cc2c(cc1CS(=O)(=O)CC)OCO2`
// result F

// query Tell me the assay call for OC(Cc1ccc2ccccc2c1)CN1CCC(c2ccccc2)CC1 (stereo unspecified) please.
// result T

// query Would you mind telling me which call this test gave `CCN(CC)C(C)(C)C(=O)/C=C/c1ccc(Cl)c(Cl)c1` ?
// result T

// query Please state the recorded outcome for this molecule: `C=CCOc1ccc(/C=N/NC(N)=S)cc1`
// result T

// query // outcome(item) with item = `O=C(C[n+]1ccccc1)c1ccc2ccc3ccc(Cl)cc3c2c1`
// result F

// query Recorded call for `Brc1cccc[n+]1Cc1cc2ccccc2c2ccccc12` ?
// result T

// query Dear colleague, could you share the recorded outcome for CS(=O)(=O)n1c(C(O)c2ccccc2)nc2ccccc21 (stereo unspecified) when you have a moment?
// result F

// query What is the recorded call for this molecule in the test? CC1=C(C)CC2C(=O)C(C(O)CC(C)C)=CC(=O)C2C1 (stereo unspecified)
// result T
